target: T1, human PD-L1-Fc (human, UniProt Q9NZQ7 19-239); assay: BLI; PD-L1-Fc loaded on the sensor, scFv in solution
T1 construct: also called hPD-L1-Fc; human PD-L1-Fc (Sino Biological, 70110-D02H); not shown: Fc part
T1 sequence (Q9NZQ7 19-239 limits assumed): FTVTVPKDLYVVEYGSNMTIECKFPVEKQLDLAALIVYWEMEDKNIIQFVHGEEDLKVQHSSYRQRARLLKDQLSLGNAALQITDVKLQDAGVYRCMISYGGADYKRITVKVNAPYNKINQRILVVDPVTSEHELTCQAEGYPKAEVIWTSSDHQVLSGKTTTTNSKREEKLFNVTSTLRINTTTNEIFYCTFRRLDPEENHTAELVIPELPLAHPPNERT
Reported Kd values for the following binders.
Your answer is read as nM, so omit the unit and give the number.

{"Binder": "4B6 scFv variant L-CDR2-2 (scFv, also called 4B6-L-CDR2-2) scFv: DIQMTQSPSSLSASVGDRVTITCKASQNVGAAVAWYQQKPGKAPKLLIYSRSVRYTGVPSRFSGSGSGTDFTLTISSLQPEDIATYYCQQYSNYPTFGQGTKLEIKGGGGSGGGGSGGGGSQVQLVQSGAEVKKPGASVKVSCKASGYVFTDYYMNWVRQAPGQSLEWMGDINPNNAGTSYNHKFKGRVTVTVDKSISTAYMELSRLRSDDTAVYYCVKWGDGPFAYWGQGTLVTVSS", "Measured number": 3.34}
{"Binder": "4B6-HgLa scFv (wild-type sequence for affinity maturation) (scFv, written VL-linker-VH; also called L-CDR1-WT; L-CDR2-WT) scFv: DIQMTQSPSSLSASVGDRVTITCKASQNVGAAVAWYQQKPGKAPKLLIYSASNRYTGVPSRFSGSGSGTDFTLTISSLQPEDIATYYCQQYSNYPTFGQGTKLEIKGGGGSGGGGSGGGGSQVQLVQSGAEVKKPGASVKVSCKASGYVFTDYYMNWVRQAPGQSLEWMGDINPNNAGTSYNHKFKGRVTVTVDKSISTAYMELSRLRSDDTAVYYCVKWGDGPFAYWGQGTLVTVSS", "Measured number": 27.6}

input: What value of Kd has been recorded for this entry: 4B6 scFv variant L-CDR2-1 (scFv, also called 4B6-L-CDR2-1) scFv: DIQMTQSPSSLSASVGDRVTITCKASQNVGAAVAWYQQKPGKAPKLLIYSNSHRYTGVPSRFSGSGSGTDFTLTISSLQPEDIATYYCQQYSNYPTFGQGTKLEIKGGGGSGGGGSGGGGSQVQLVQSGAEVKKPGASVKVSCKASGYVFTDYYMNWVRQAPGQSLEWMGDINPNNAGTSYNHKFKGRVTVTVDKSISTAYMELSRLRSDDTAVYYCVKWGDGPFAYWGQGTLVTVSS
output: 8.06
